- experimental system: human PI3K(p110α/p85α) (Homo sapiens, UniProt P42336)
- Sequence (P42336 whole entry): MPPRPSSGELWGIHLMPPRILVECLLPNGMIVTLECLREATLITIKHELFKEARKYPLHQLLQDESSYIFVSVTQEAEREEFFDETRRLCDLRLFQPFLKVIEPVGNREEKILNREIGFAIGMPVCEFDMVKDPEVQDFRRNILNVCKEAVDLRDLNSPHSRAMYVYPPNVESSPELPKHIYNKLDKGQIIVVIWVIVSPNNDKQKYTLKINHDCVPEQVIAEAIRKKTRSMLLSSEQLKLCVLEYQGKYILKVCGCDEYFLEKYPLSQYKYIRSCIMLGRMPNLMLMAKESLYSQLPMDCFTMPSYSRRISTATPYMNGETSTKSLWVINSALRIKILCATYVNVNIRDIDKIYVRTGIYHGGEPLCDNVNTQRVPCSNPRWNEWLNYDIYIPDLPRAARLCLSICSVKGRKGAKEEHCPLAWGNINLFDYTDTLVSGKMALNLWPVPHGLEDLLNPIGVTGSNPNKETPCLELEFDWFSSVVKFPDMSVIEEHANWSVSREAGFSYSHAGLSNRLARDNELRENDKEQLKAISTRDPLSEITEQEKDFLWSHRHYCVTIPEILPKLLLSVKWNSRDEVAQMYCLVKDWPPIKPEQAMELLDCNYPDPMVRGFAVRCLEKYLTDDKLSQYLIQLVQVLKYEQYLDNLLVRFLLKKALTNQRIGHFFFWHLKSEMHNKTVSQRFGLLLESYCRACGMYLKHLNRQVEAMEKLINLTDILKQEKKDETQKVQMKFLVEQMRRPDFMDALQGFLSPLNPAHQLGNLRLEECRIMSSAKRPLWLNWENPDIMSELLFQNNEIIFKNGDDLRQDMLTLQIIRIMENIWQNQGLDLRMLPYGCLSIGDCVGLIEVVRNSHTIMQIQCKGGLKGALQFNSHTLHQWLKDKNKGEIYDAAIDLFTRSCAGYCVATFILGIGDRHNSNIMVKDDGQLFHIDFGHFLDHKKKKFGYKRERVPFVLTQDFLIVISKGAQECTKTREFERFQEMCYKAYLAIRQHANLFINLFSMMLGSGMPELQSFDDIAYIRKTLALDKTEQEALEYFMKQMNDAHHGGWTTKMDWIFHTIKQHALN
- Sequence (P27986 whole entry partner): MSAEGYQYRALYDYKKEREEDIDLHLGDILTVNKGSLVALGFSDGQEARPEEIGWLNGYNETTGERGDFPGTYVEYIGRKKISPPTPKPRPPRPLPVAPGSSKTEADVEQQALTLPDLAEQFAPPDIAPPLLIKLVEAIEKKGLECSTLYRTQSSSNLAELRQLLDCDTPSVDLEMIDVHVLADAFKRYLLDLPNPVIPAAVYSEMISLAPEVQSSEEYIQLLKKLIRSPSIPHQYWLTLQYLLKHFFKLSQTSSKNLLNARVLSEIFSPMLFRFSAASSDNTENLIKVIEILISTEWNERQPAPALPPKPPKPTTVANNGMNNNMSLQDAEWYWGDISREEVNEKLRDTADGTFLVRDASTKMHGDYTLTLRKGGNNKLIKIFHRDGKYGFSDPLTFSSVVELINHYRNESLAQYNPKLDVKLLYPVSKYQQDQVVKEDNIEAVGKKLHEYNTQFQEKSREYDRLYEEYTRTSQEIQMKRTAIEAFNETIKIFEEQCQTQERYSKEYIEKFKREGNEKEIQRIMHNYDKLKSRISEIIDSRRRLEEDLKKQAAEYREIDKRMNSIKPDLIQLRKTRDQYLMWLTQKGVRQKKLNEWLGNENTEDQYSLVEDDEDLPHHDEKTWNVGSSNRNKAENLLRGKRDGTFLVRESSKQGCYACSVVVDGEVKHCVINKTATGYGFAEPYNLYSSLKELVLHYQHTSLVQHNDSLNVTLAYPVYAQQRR
- test protocol: Measurement of PI3K inhibitory activity (AlphaScreen GST Detection Kit)
- Type: biochemical
- cond: 10 μM ATP, 4 μM PI(4,5)P2, read-out: Enzyme inhibitory activity (IC50, μM) PI3K α
reported metric: IC50 (µM)

Nc1ncc(-c2nc(N3CCOCC3)nc3c2CCN3c2ccc(C(=O)N3CCC(N4CCOCC4)CC3)cc2)cn1 0.009

A = CCN1CCN(C(=O)c2cccc(NC(=O)N3CCc4c(-c5cnc(N)nc5)nc(N5CCOCC5)nc43)c2)CC1
B = CN1CCN(Cc2ccc(N3CCc4c(-c5cnc(N)nc5)nc(N5CCOCC5)nc43)cc2F)CC1
C = CCN1CCN(C(=O)c2ccc(C)c(NC(=S)N3CCc4c(-c5cnc(N)nc5)nc(N5CCOCC5)nc43)c2)CC1
Provide the items ranked by increasing IC50. Answer by writing out the labels in the requested order. A, C, B
(A: 0.009 µM, C: 0.024 µM, B: 0.11 µM)

---

- System: human prostate cancer cell line PC3
- test protocol: Cell proliferation inhibitory activity (Cell Counting Kit-8), prostate cancer PC3
- Assay type: cell-based
- cond: 96 h, PC3, 4 days
As shown below, each of these compounds has a reported inhibition at 2.5 µM value.
# number only, unit % dropped from output

Examples with answers:
Nc1ncc(-c2nc(N3CCOCC3)nc3c2CCN3c2ccc(CN3CCN(CCC(F)(F)F)CC3)cc2)cn1 43
CN1CCN(Cc2ccc3cc(N4CCc5c(-c6cnc(N)nc6)nc(N6CCOCC6)nc54)ccc3c2)CC1 43
CN(C)CCOC(=O)c1cccc(-c2nc(N3CCOCC3)nc3c2CCN3c2cccnc2)c1 48

Here's the next entry for you.
Look at this compound and give its reported inhibition at 2.5 µM. `Nc1ccc(-c2nc(N3CCOCC3)nc3c2CCN3c2ccncc2)nc1` 47

---

- experimental system: human PI3K(p110α/p85α) (Homo sapiens, UniProt P42336)
- test protocol: Measurement of PI3K inhibitory activity (AlphaScreen GST Detection Kit)
- Format: biochemical
- cond: 10 μM ATP, 4 μM PI(4,5)P2, read-out: Enzyme inhibitory activity (IC50, μM) PI3K α
- Procedure: The inhibitory activity of compounds of the present invention represented by formula (I) were measured with human PI3K(p110α/p85α) prepared in a baculovirus expression system using the AlphaScreen GST Detection Kit (Perkin Elmer, Inc.). […]
Where a name gives a salt, the structure may show the parent alone.
reported metric: IC50 (µM)

compound	IC50 [µM]
CN1CCN(C(=O)c2ccc(N3CCc4c(-c5cnc(N)nc5)nc(N5CCOCC5)nc43)cc2)CC1	0.014
CC(C)N1CCN(Cc2ccc(N3CCc4c(-c5cnc(N)nc5)nc(N5CCOCC5)nc43)cc2)CC1	0.06
Nc1ccc(-c2nc(N3CCOCC3)nc3c2CCN3c2ccncc2)nc1	0.34
Nc1ncc(-c2nc(N3CCOCC3)nc3c2CCN3c2ccc(C(=O)NCc3cccnc3)cc2)cn1	0.06
Nc1ncc(-c2nc(N3CCOCC3)nc3c2CCN3c2ccc(CC(=O)N3CCNCC3)cc2)cn1	0.008

1 = CN(Cc1cccnc1)C(=O)c1ccc(N2CCc3c(-c4cnc(N)nc4)nc(N4CCOCC4)nc32)c(F)c1
2 = NCc1ccc(-c2nc(N3CCOCC3)nc3c2CCN3c2ccncc2)cc1 [Example B-32, hydrochloride]
Of 1 versus 2 , which is the one with smaller reported IC50? Identify your pick by its label. 1
